Provenance of the data: the supplement of paper PMC5998384

Tested on: HeLa Kyoto
Assay details: solubility in G1/S (NP-40 vs SDS abundance) (log2 ratio); higher = more soluble
Test parameters: cell cycle stage: G1/S
Measurement name: solubility in G1/S (log2)

Solved cases (2 shown):
Residue string	solubility in G1/S (log2)
MTDLVAVWDVALSDGVHKIEFEHGTTSGKRVVYVDGKEEIRKEWMFKLVGKETFYVGAAKTKATINIDAISGFAYEYTLEINGKSLKKYMEDRSKTTNTWVLHMDGENFRIVLEKDAMDVWCNGKKLETAGEFVDDGTETHFSIGNHDCYIKAVSSGKRKEGIIHTLIVDNREIPEIAS [FAIM]	-0.00968
MAEERPGAWFGFGFCGFGQELGSGRGRQVHSPSPLRAGVDICRVSASWSYTAFVTRGGRLELSGSASGAAGRCKDAWASEGLLAVLRAGPGPEALLQVWAAESALRGEPLWAQNVVPEAEGEDDPAGEAQAGRLPLLPCARAYVSPRAPFYRPLAPELRARQLELGAEHALLLDAAGQVFSWGGGRHGQLGHGTLEAELEPRLLEALQGLVMAEVAAGGWHSVCVSETGDIYIWGWNESGQLALPTRNLAEDGETVAREATELNEDGSQVKRTGGAEDGAPAPFIAVQPFPALLDLPMGSDAVKASCGSRHTAVVTRTGELYTWGWGKYGQLGHEDTTSLDRPRRVEYFVDKQLQVKAVTCGPWNTYVYAVEKGKS [RCCD1]	0.0194

solubility in G1/S (log2) reported for this sequence MEESMEEEEGGSYEAMMDDQNHNNWEAAVDGFRQPLPPPPPPSSIPAPAREPPGGQLLAVPAVSVDRKGPKEGLPMGPQPPPEANGVIMMLKSCDAAAAVAKAAPAPTASSTININTSTSKFLMNVITIEDYKSTYWPKLDGAIDQLLTQSPGDYIPISYEQIYSCVYKCVCQQHSEQMYSDLIKKITNHLERVSKELQASPPDLYIERFNIALGQYMGALQSIVPLFIYMNKFYIETKLNRDLKDDLIKLFTEHVAEKHIYSLMPLLLEAQSTPFQVTPSTMANIVKGLYTLRPEWVQMAPTLFSKFIPNILPPAVESELSEYAAQDQKFQRELIQNGFTRGDQSRKRAGDELAYNSSSACASSRGYR [CACUL1] : 0.278

* * *

Test system: HeLa Kyoto
Assay details: thermal stability score vs G1/S (z-score of summed log2 fold changes over temperatures); higher = more thermally stable than in G1/S
Test parameters: cell cycle stage: early G1 (4.5 h after nocodazole release)
// false (0) strictly below -3 in thermal stability score; true (1) otherwise

See these solved cases before continuing.
Residue string	Subject of test	Cat
MSFVAYEELIKEGDTAILSLGHGAMVAVRVQRGAQTQTRHGVLRHSVDLIGRPFGSKVTCGRGGWVYVLHPTPELWTLNLPHRTQILYSTDIALITMMLELRPGSVVCESGTGSGSVSHAIIRTIAPTGHLHTVEFHQQRAEKAREEFQEHRVGRWVTVRTQDVCRSGFGVSHVADAVFLDIPSPWEAVGHAWDALKVEGGRFCSFSPCIEQVQRTCQALAARGFSELSTLEVLPQVYNVRTVSLPPPDLGTGTDGPAGSDTSPFRSGTPMKEAVGHTGYLTFATKTPG [TRMT61A]	HeLa Kyoto	true (1)
MADEELEALRRQRLAELQAKHGDPGDAAQQEAKHREAEMRNSILAQVLDQSARARLSNLALVKPEKTKAVENYLIQMARYGQLSEKVSEQGLIEILKKVSQQTEKTTTVKFNRRKVMDSDEDDDY [PDCD5]	HeLa Kyoto	false (0)
MQPQSVLHSGYFHPLLRAWQTATTTLNASNLIYPIFVTDVPDDIQPITSLPGVARYGVKRLEEMLRPLVEEGLRCVLIFGVPSRVPKDERGSAADSEESPAIEAIHLLRKTFPNLLVACDVCLCPYTSHGHCGLLSENGAFRAEESRQRLAEVALAYAKAGCQVVAPSDMMDGRVEAIKEALMAHGLGNRVSVMSYSAKFASCFYGPFRDAAKSSPAFGDRRCYQLPPGARGLALRAVDRDVREGADMLMVKPGMPYLDIVREVKDKHPDLPLAVYHVSGEFAMLWHGAQAGAFDLKAAVLEAMTAFRRAGADIIITYYTPQLLQWLKEE [ALAD]	HeLa Kyoto	true (1)
MSLFGTTSGFGTSGTSMFGSATTDNHNPMKDIEVTSSPDDSIGCLSFSPPTLPGNFLIAGSWANDVRCWEVQDSGQTIPKAQQMHTGPVLDVCWSDDGSKVFTASCDKTAKMWDLSSNQAIQIAQHDAPVKTIHWIKAPNYSCVMTGSWDKTLKFWDTRSSNPMMVLQLPERCYCADVIYPMAVVATAERGLIVYQLENQPSEFRRIESPLKHQHRCVAIFKDKQNKPTGFALGSIEGRVAIHYINPPNPAKDNFTFKCHRSNGTNTSAPQDIYAVNGIAFHPVHGTLATVGSDGRFSFWDKDARTKLKTSEQLDQPISACCFNHNGNIFAYASSYDWSKGHEFYNPQKKNYIFLRNAAEELKPRNKK [RAE1]	HeLa Kyoto	true (1)
MFLTRSEYDRGVNTFSPEGRLFQVEYAIEAIKLGSTAIGIQTSEGVCLAVEKRITSPLMEPSSIEKIVEIDAHIGCAMSGLIADAKTLIDKARVETQNHWFTYNETMTVESVTQAVSNLALQFGEEDADPGAMSRPFGVALLFGGVDEKGPQLFHMDPSGTFVQCDARAIGSASEGAQSSLQEVYHKSMTLKEAIKSSLIILKQVMEEKLNATNIELATVQPGQNFHMFTKEELEEVIKDI [PSMA5]	HeLa Kyoto	true (1)
MAASGEPQRQWQEEVAAVVVVGSCMTDLVSLTSRLPKTGETIHGHKFFIGFGGKGANQCVQAARLGAMTSMVCKVGKDSFGNDYIENLKQNDISTEFTYQTKDAATGTASIIVNNEGQNIIVIVAGANLLLNTEDLRAAANVISRAKVMVCQLEITPATSLEALTMARRSGVKTLFNPAPAIADLDPQFYTLSDVFCCNESEAEILTGLTVGSAADAGEAALVLLKRGCQVVIITLGAEGCVVLSQTEPEPKHIPTEKVKAVDTTGAGDSFVGALAFYLAYYPNLSLEDMLNRSNFIAAVSVQAAGTQSSYPYKKDLPLTLF [RBKS]	HeLa Kyoto	true (1)
MISLTDTQKIGMGLTGFGVFFLFFGMILFFDKALLAIGNVLFVAGLAFVIGLERTFRFFFQKHKMKATGFFLGGVFVVLIGWPLIGMIFEIYGFFLLFRGFFPVVVGFIRRVPVLGSLLNLPGIRSFVDKVGESNNMV [GOLT1B]	HeLa Kyoto	false (0)
MAAPVDLELKKAFTELQAKVIDTQQKVKLADIQIEQLNRTKKHAHLTDTEIMTLVDETNMYEGVGRMFILQSKEAIHSQLLEKQKIAEEKIKELEQKKSYLERSVKEAEDNIREMLMARRAQ [PFDN1]	HeLa Kyoto	false (0)

[Q] Would you say MAETYDFLFKFLVIGSAGTGKSCLLHQFIENKFKQDSNHTIGVEFGSRVVNVGGKTVKLQIWDTAGQERFRSVTRSYYRGAAGALLVYDITSRETYNSLAAWLTDARTLASPNIVVILCGNKKDLDPEREVTFLEASRFAQENELMFLETSALTGENVEEAFLKCARTILNKIDSGELDPERMGSGIQYGDASLRQLRQPRSAQAVAPQPCGC [RAB4B] shows thermal stability score at minimum -3?
[A] true (1)

[Q] Is thermal stability score for MALVASVRVPARVLLRAGARLPGAALGRTERAAGGGDGARRFGSQRVLVEPDAGAGVAVMKFKNPPVNSLSLEFLTELVISLEKLENDKSFRGVILTSDRPGVFSAGLDLTEMCGRSPAHYAGYWKAVQELWLRLYQSNLVLVSAINGACPAGGCLVALTCDYRILADNPRYCIGLNETQLGIIAPFWLKDTLENTIGHRAAERALQLGLLFPPAEALQVGIVDQVVPEEQVQSTALSAIAQWMAIPDHARQLTKAMMRKATASRLVTQRDADVQNFVSFISKDSIQKSLQMYLERLKEEKG [ECI1] at or above -3?
[A] true (1)

[Q] API: above_or_equal(metric=thermal stability score, cutoff=-3) for item MQWLRVRESPGEATGHRVTMGTAALGPVWAALLLFLLMCEIPMVELTFDRAVASGCQRCCDSEDPLDPAHVSSASSSGRPHALPEIRPYINITILKGDKGDPGPMGLPGYMGREGPQGEPGPQGSKGDKGEMGSPGAPCQKRFFAFSVGRKTALHSGEDFQTLLFERVFVNLDGCFDMATGQFAAPLRGIYFFSLNVHSWNYKETYVHIMHNQKEAVILYAQPSERSIMQSQSVMLDLAYGDRVWVRLFKRQRENAIYSNDFDTYITFSGHLIKAEDD [C1QTNF6]
[A] true (1)

* * *

Tested on: HeLa Kyoto
Assay details: solubility change mitosis vs G1/S (difference of NP-40 vs SDS log2 ratios) (log2 ratio difference); higher = more soluble in mitosis
Measurement name: solubility change mitosis (log2)
API doc: respond with a numeric literal and nothing else, no unit.

Value of measured solubility change mitosis (log2) for the entry MAEGGGPEPGEQERRSSGPRPPSARDLQLALAELYEDEVKCKSSKSNRPKATVFKSPRTPPQRFYSSEHEYSGLNIVRPSTGKIVNELFKEAREHGAVPLNEATRASGDDKSKSFTGGGYRLGSSFCKRSEYIYGENQLQDVQILLKLWSNGFSLDDGELRPYNEPTNAQFLESVKRGEIPLELQRLVHGGQVNLDMEDHQDQEYIKPRLRFKAFSGEGQKLGSLTPEIVSTPSSPEEEDKSILNAVVLIDDSVPTTKIQIRLADGSRLIQRFNSTHRILDVRNFIVQSRPEFAALDFILVTSFPNKELTDESLTLLEADILNTVLLQQLK [UBXN2B] : 0.053
